Where do these numbers come from? They come from ChEMBL document CHEMBL3400025.

- Test system: HeLa
- assay_protocol: Antiproliferative activity against human HeLa cells assessed as inhibition of cell growth after 48 hrs by MTT assay
- Type: functional, cell-based
pIC50: −log10 of the molar value.
The compounds listed here are annotated with their pIC50.

Solved entries (count: 3):
C[C@]12CCC(=O)C=C1CC[C@@H]1[C@@H]2CC[C@]2(C)/C(=C/c3ccccn3)CC[C@@H]12 :: < 4.00
C[C@]12C/C(=N/O)C(=O)C=C1CC[C@@H]1[C@@H]2CC[C@@]2(C)[C@H]1CC[C@@]2(O)Cc1ccccn1 :: < 4.00
C[C@]12C/C(=C/O)C(=O)C=C1CC[C@@H]1[C@@H]2CC[C@]2(C)/C(=C/c3ccccn3)CC[C@@H]12 :: < 4.00

Value (pIC50, HeLa) for record `C[C@]12CC[C@H](O)CC1=CC[C@@H]1[C@@H]2CC[C@@]2(C)[C@H]1CC[C@@]2(O)Cc1ccccn1` = 4.12

Fill in: HeLa pIC50 for `C[C@]1(CC#N)C(C#N)=CC[C@@H]2[C@@H]1CC[C@@]1(C)[C@H]2CC[C@@]1(O)Cc1ccccn1` = < 4.00

Readout pIC50 for `C[C@]12CCNC(=O)C=C1CC[C@@H]1[C@@H]2CC[C@]2(C)/C(=C/c3ccccn3)CC[C@@H]12` , test system HeLa, was < 4.00

HeLa data for `C[C@]12CCC(=O)C=C1CC[C@@H]1[C@@H]2CC[C@@]2(C)[C@H]1CC[C@@]2(O)Cc1ccccn1` ; its pIC50: 4.24

HeLa pIC50 of `C[C@]12C/C(=N/O)C(=O)/C(=N\O)C1=CC[C@@H]1[C@@H]2CC[C@@]2(C)[C@H]1CC[C@@]2(O)Cc1ccccn1` is 4.09

I looked up `C[C@]12C/C(=N\O)C(=O)c3noc(c31)C[C@@H]1[C@@H]2CC[C@@]2(C)[C@H]1CC[C@@]2(O)Cc1ccccn1` and its pIC50 for HeLa was < 4.00

The recorded pIC50 with HeLa for `C[C@]12C/C(=C/O)C(=O)C=C1CC[C@@H]1[C@@H]2CC[C@@]2(C)[C@H]1CC[C@@]2(O)Cc1ccccn1` was < 4.00

Entry `C[C@]12CC[C@H](O)CC1=CC[C@@H]1[C@@H]2CC[C@]2(C)/C(=C/c3ccccn3)CC[C@@H]12` under HeLa had pIC50 of < 4.00
